organism: Rattus norvegicus; test: Open TG-GATES - Regimen: Single; assay type: toxicity, organism-based, Sprague-Dawley; parameters: regimen Single, gender Male, age 6 weeks; conditions: in vivo, po, 100 mg/kg, 9 h, tissue Blood, route gavage, dose level High
PROPERTY NAME: Eos (%)
One number for each entry, in %.

| COMPOUND | REPORTED |
| --- | --- |
| CN(C)CCCN1c2ccccc2CCc2ccc(Cl)cc21 [CLOMIPRAMINE] | 1 |
| CN(C)CCCN1c2ccccc2CCc2ccccc21 [IMIPRAMINE] | 0.8 |
| CN(C)CCN(Cc1cccs1)c1ccccn1 | 0.8 |

Now let's try a different one.
State, in one line, measured Eos of CC1=C(/C=C/C(C)=C/C=C/C(C)=C/CO)C(C)(C)CCC1 [RETINOL]
0.8

###

species on record: Rattus norvegicus; test: Open TG-GATES - Regimen: Daily Repeat; type: toxicity, organism-based, Sprague-Dawley; set-up: regimen Daily Repeat, gender Male, age 6 weeks; conditions: in vivo, po, 0 mg/kg, […], tissue Blood, route gavage, dose level Control, time 14 day
Kindly state Eos for each of the entries shown.
Kindly write the number and append the unit.

Past entries and their recorded results:
| COMPOUND | Eos |
| --- | --- |
| CN(C)CCN(Cc1cccs1)c1ccccn1 | 1% |
| CN(C)CCCN1c2ccccc2CCc2ccccc21 | 0.8% |
| COC1=CC(=O)C[C@@H](C)[C@]12Oc1c(Cl)c(OC)cc(OC)c1C2=O | 1% |

Report Eos for each item below.
1. COc1ccc2[nH]c([S+]([O-])Cc3ncc(C)c(OC)c3C)nc2c1 (centres undefined)
2. CC(C)OC(=O)C(C)(C)Oc1ccc(C(=O)c2ccc(Cl)cc2)cc1 [FENOFIBRATE]
3. NC(N)=Nc1nc(CSCCC(N)=NS(N)(=O)=O)cs1

1: 1%; 2: 1%; 3: 1%

Report Eos for each item below.
1. CCCNC(=O)NS(=O)(=O)c1ccc(Cl)cc1 [CHLORPROPAMIDE]
2. CCOC(=O)CCC(=O)O[C@H]1[C@H](O[C@@H]2[C@@H](C)[C@H](O[C@H]3C[C@@](C)(OC)[C@@H](O)[C@H](C)O3)[C@@H](C)C(=O)O[C@H](CC)[C@@](C)(O)[C@H](O)[C@@H](C)C(=O)[C@H](C)C[C@@]2(C)O)O[C@H](C)C[C@@H]1N(C)C [ERYTHROMYCIN ETHYLSUCCINATE]
3. CC1=C(/C=C/C(C)=C/C=C/C(C)=C/CO)C(C)(C)CCC1

1%
1%
0.4%

###

species on record: Rattus norvegicus; test: Open TG-GATES - Regimen: Single; type: toxicity, organism-based, Sprague-Dawley; set-up: regimen Single, gender Male, age 6 weeks; settings: in vivo, po, 100 mg/kg, 9 h, tissue Blood, route gavage, dose level High
PROPERTY NAME: Ht (%)
One number for each entry, in %.

Past entries and their recorded results:
| COMPOUND SMILES | PROPERTY NAME | REPORTED |
| --- | --- | --- |
| CN(C)CCN(Cc1cccs1)c1ccccn1 | Ht | 39.6 |
| CC1=C(/C=C/C(C)=C/C=C/C(C)=C/CO)C(C)(C)CCC1 | Ht | 36.9 |
| CN(C)CCCN1c2ccccc2CCc2ccccc21 | Ht | 42 |

Now let's try a different one.
State, in one line, measured Ht of "CN(C)CCCN1c2ccccc2CCc2ccc(Cl)cc21"
43.6

Entry source: ChEMBL document CHEMBL3885861
